The measurements presented in this section are drawn from the DeepSol protein solubility set.

Assay: soluble on expression in E. coli; label from the status in PepcDB or PDB records
parameterMeasured: soluble on expression in E. coli

# annotated cases, reported soluble on expression in E. coli shown
YPQVIVDHPFLYLIRNRKSGIILFMGRVMNPHH | soluble
MGSSHHHHHHSSGLVPRGSHMHVQAKFSNNLNIFEYSIVIRKIFYLGPPGSFSQEAAEIFGSDLVPVRSISEIFHKISVTGDYGIVPIENSIEGPVNETLDGLFRHEDIYIVDHVEIPIEIFLASNCDTENIRRIYSHPHAIAEAGDYLERTENIEVIRTSSTSEAAKLASMDEAGAALCSMKAAQHYGLANTVKIESKSRNITRFILIGRERNVEGSRHIILCVIPDRPGSLHSLIGVLASRGINMNMIYSRPLRDTIWKYYFYIEFSGKLDEDLLLTMGKQSLRILYKGSFKCCR | soluble
MNHKVHHHHHHIEGRHMDEYKQVDVGKDGMVATAHPLASEIGADVLKKGGNAIDAAVAIQFALNVTEPMMSGIGGGGFMMVYDGKTKDTTIIDSRERAPAGATPDMFLDENGKAIPFSERVTKGTAVGVPGTLKGLEEALDKWGTRSMKQLITPSIKLAEKGFPIDSVLAEAISDYQEKLSRTAAKDVFLPNGEPLKEGDTLIQKDLAKTFKLIRSKGTDAFYKGKFAKTLSDTVQDFGGSMTEKDLENYDITIDEPIWGDYQGYQIATTPPPSSGGIFLLQMLKILDHFNLSQYDVRSWEKYQLLAETMHLSYADRASYAGDPEFVNVPLKGLLHPDYIKERQQLINLDQVNKKPKAGDPWKYQEGSANYKQVEQPKDKVEGQ | soluble
MMHIAHSAPNHTVEGLYRAHNVWLTTWLRRRLGCPHSAADLAQDTFVKVLGARDTAQIIEPRAFLTTIAKRVLCNHYRRQDLERAYYQALAELPECAAPSEEERAIILETLVELDQLLDGLPALVKRAFLMSQVDGLSHGQIAAELDISIATVKRHLNKAALRCYFAL | not soluble
MGSDKIHHHHHHMKIAVVGLGNIGFNLFSYINKKYPNSVVGVDIDAGRVNDLRSQGYRVTTDYRALTGIDIWLLAPSTGDQGENLFAALGEMIICPGALISIESTLPPGTMELVRKYLEGKGYRCGQDVYLIHVPHRVMFGVDETVCDTPRVMGAFTQACRDKGRQFYEPLVPQLVEVEDVRIAELSKVVENVKRYVDVAFAQELYQYCKDQGMDFAELRKAVNSKSNVELLGTDWGIGGECLPKDMRFLRKVCPSPLLEGAAIADQEYRDRILQQVGTHQNVLIKGLSYKAGVKDLKHSRGVDLVRALEEAGNTVWVVDPLFTPEELEAAGFKTVEKFDEADLQGWIVLEREKALK | not soluble

Entry MGSDKIHHHHHHVATYNERLFDGKSFRSKLHYARYLWVNSWIKRWELPSYSMLELGCYDGKTIDFLSNKPATYAGYDANWEGGLDIAKTKWSMHPDYSFHTCEKPADFSADDSMYEVSVCLETLEHIPAADLEAYIVQLSKKTKQYCLVSVPNEKGPVLFFKHIIKSITQEKAQTEAYTLKEFLYGSIGRLDKVARRDCGHKGFDYDALAVLLKKYFTILKTEAIPYPAIPHALGFNVGFILKKN , soluble on expression in E. coli reported as not soluble

###

Experiment: soluble on expression in E. coli; label from the status in PepcDB or PDB records
parameterMeasured: soluble on expression in E. coli

# annotated cases, reported soluble on expression in E. coli shown
MAHHHHHHSLISNHFLRDLYAIIVDDVGRFKPSAILDVGCGTGTADYFILSAFPDISVDCIDPSPYMISIARKKLSKFGSRVRAELGSSRSIPFDRRYDFVFTSISFHHWKCREDGLRNMAKYVSDHGVLAVYEYYRPNLRSFHRVAGKHALTMEDVEKLNIEGFTKKYEIRGEMMRIMFQRDEG | soluble
GMMTHYSDNTLKVAHQGFEFFTQGLATGEWQKFLDMLTEDFTFWFPMGEFHGLNVGKERAKEFFTYVSESFHTGIQISSLDRVTSNETTVVFEFRDEGLFLGKPYKNRVAVSFDVRGDKICSYREYFGSDGKSN | soluble
MSLSLEYKGTFGSINAGYADWNSGFVNTHRGEVWKVTADFGVNFKEAEFYSFYESNVLNHAVAGRNHTVSAMTHVRLFDSDMTFFGKIYGQWDNSWGDDLDMFYGFGYLGWNGEWGFFKPYIGLHNQSGDYVSAKYGQTNGWNGYVVGWTAVLPFTLFDEKFVLSNWNEIELDRNDAYTEQQFGRNGLNGGLTIAWKFYPRWKASVTWRYFDNKLGYDGFGDQMIYMLGYDFEGHHHHHH | not soluble
RELLMMTPSKELCQVVGNDVLEIEKVSDHQLKLAGITKVGQELRVNIDLHVDDDMIELDTLEQTRKQLTTRLSKHRFKLQLNLNVANC | not soluble

Entry MGSDKIHHHHHHMKPPIQLPLGVRLRDDATFINYYPGANAAALGYVERLCEADAGWTESLIYLWGKQGVGRSHLLQAATHRFQQRGEPAVYLPLAQLLDRGVELLDYLAQYELVCIDDLHVIAGKADWEEAMFHLFNRLRDSGRRLLLAASASPRELPIKLPDLKSRLTLALVFQMRGLSDEDKLRALQLRASRRGLHLTDEVGHFILTRGARSMSALFDLLERLDQASLQAQRKLTIPFLKETLGW , soluble on expression in E. coli reported as not soluble

Entry MKLERQKLLAKVAYLYYMEGKSQSEIANELGIYRTTISRMLAKAREEGLVRIEISDFNPEIFQLESYFKSKYHLKDIEIVSSRKDSDTSEIEKDLAHVAAAMIRKKIKENDKVGIAWGRTLSKVVEAMRPHPVSQVSFVPLAGGPSHINARYHVNTLVYEMSRRFQGSCTFINATLVQENANLAKGILTSKYFEGLMDNWEKLDVAIVGVGGKPKSNEQQWLDLLNQDDFQCLDEEAAVGEITCRFFNHSGDPVNQHLAKRTIGITLEQLQKVPNRIAVAHGNYKAAALLAVLKKGYINHLVTDFSTALNILRLDKDTFVDTIYQKS , soluble on expression in E. coli reported as not soluble

Entry SDSTAGTDAVAVGGTFQFHSPDGKMEIFYDEADRQQLPDIGGDSLMEEGTQINLSDFENQVVILNAWGQWCAPCRSESDDLQIIHEELQAAGNGDTPGGTVLGINVRDYSRDIAQDFVTDNGLDYPSIYDPPFMTAASLGGVPASVIPTTIVLDKQHRPAAVFLREVTSKDVLDVALPLVDEA , soluble on expression in E. coli reported as soluble

###

Assay: soluble on expression in E. coli; label from the status in PepcDB or PDB records
parameterMeasured: soluble on expression in E. coli

TSDTPALLYIHGLNSSAQSKKACQLIALMKSLGLADRLQVPELHHHPRQAMLQLESAIGALGRPLLVGSSLGGYYATHLAQRHGLKAVLINPAVNPHQLFDGFLGMQQNLYTGEQWQLTEDHIKALAELEVPAPQDPQQFQVWLQTGDETLDYRRAEKFYRACALRIQAGGDHSFQGFAERLPALLSFAGFAPDLLQ | not soluble
MAHHHHHHMLRRLVSCASPLRLRGCGAAVVLGNGRFASTANASAAPPITTTKAPTYGTVPDIPNLNFLSSPDNLLNTVDGTVDVCEALLKEIPKAKTPQAKHDLIDSTSNVLCLLLDPCEFVRQIHPDENYKRGASLAFQKGYEYMCEVNSRRDLYDVIKELDSQEGRKGLTPESSRTLCS | not soluble
MDSGYWQSQFEDWLRHHHQEQDAAHDIFHFRRVWATAQTLGENSPVDWLVVLSACYFHDIVSLAKNHPQRHRSSILAAAETRRIFLRDFPDFPAEKLAGICHAIEAHSFSAKIAPTTPEAKIVQDADRLEALGAIGLARVFAVSGALGVALFDADDPFANRRPLNDKQFALDHFQTKLLKLPLTMQTERGKSLAQRNADFLVSYMAKLSAELKGDYETRDDAVIQMFATHQLEHHHHHH | soluble
MNSENSFSSSEHITVLLHEAVNGLALKENGIYIDGTFGRGGHSRFILSQLSSNGRLIAVDRDPRAIAEAHKIQDLRFQIEHNSFSHIPEICDKLNLVGKIDGILLDLGVSSPQLDEAERGFSFMKDGPLDMRMDTTQGLSAEEWLKQVSIEDLTWVLKTFGEERFAKRIATAIVDFNKSAVKNGTEFLSRTSQLAELISQAVPFKDKHKHPATRSFQAIRIFINSELDELESLLNSALDMLAPEGRLSIISFHSLEDRMVKHFMKKQSKGEDIPKGLPLREDQIQRNQKLRIIGKAIQPSDAEIQANPRSRSAILRVAERI | not soluble
MSLKQKSVPMRHGTIYLYGLHSVHAALKNPKRVFEHLYITPNALKRLNIPESDLPCPITLCLPKQLDSFVGNDAVHQGIVLETEPLKPCQLSELTNTDLVIVMDQITDPHNVGAIMRSAVAFKAEALITTYRHSPQESGVLAKAASGALEMIHYITVQNLAETLQELHKAGFISFGLDSEGNHPLETTLTGEKIALVLGAEGKGLRKKTRENVCALTRLDMPGNIKSLNVSNAATIALYAAHKYLRGEGHHHHHH | soluble

Entry MLGIDLGSNTLRAVQMDEKLNKLKEYEFVIGAAKNLNQSGEISKEAIQRLKNTLSILAKEQDLSKARAVATAAFRKASNTNEIFAHLKKEFGIDFKLIDAKSEAKISVLGMQSGLRRLKIWGEFAYCDLGGASCELSFGKSFKSFDFGIISFYEKNYHSYYKSCISYKKLIKKYPKFIINIKDKKLKIHFLIANPYLKHLAFRAFDEVAMIKKELRSLGAKTVVLNSGVPTTLSALKQNISYEKYEATKVNGKKLCHKDFLNYAIKLFHMEEKKAIKEVGTMRKNYLSAGCLLFYALFDKHKLLVIDEGLREGVCLASMKNIKF , soluble on expression in E. coli reported as not soluble
